Endpoint Name: melting point

Could you share which melting point value was measured for `CCOC(=O)c1ccc(-c2ncc(-c3ccc(Cl)cc3)o2)cc1` ? 195 to 197 °C

Could you share which melting point value was measured for `CC(C)(C)c1ccc(-c2csc(-c3cccc(C(=O)O)c3)n2)cc1` ? 250 to 251 °C

Could you share which melting point value was measured for `COC(=O)c1ccc(-c2nc(-c3ccc(C)cc3)cs2)cc1` ? 185 to 187 °C

Could you share which melting point value was measured for `O=C(O)c1ccc(-c2coc(-c3ccc(Cl)cc3)n2)cc1` ? 288 to 289 °C

Could you share which melting point value was measured for `O=C(O)c1ccc(-c2nc(-c3c(F)c(F)c(F)c(F)c3F)cs2)cc1` ? 273 to 274 °C

Could you share which melting point value was measured for `O=C(O)c1cccc(-c2nc(-c3ccc(C(F)(F)F)cc3)cs2)c1` ? 230 to 231 °C

====

Endpoint Name: melting point

CCOC(=O)c1ccc(-c2coc(-c3ccc(C(F)(F)F)cc3)n2)cc1; 168 to 170 °C
O=C(O)c1cccc(-c2nc(-c3ccc(Cl)cc3)cs2)c1; 265 to 266 °C
Cc1ccc(-c2csc(-c3ccc(C(=O)O)cc3)n2)cc1; 289 to 290 °C
COC(=O)c1ccc(-c2nc(-c3ccccc3)co2)cc1 [Example 4, methyl 4-(4-phenyl-2-oxazolyl)benzoate]; 175 to 176 °C
O=C(O)c1ccc(-c2coc(-c3cccc(C(F)(F)F)c3)n2)cc1; 268 to 269 °C
O=C(O)c1ccc(-c2nc(-c3ccc(Cl)s3)co2)cc1; ≥ 300 °C

Could you now consider this next compound?
Could you share which melting point value was measured for `COC(=O)c1ccc(-c2nc(-c3ccc(Cl)cc3)co2)cc1` ? 183 to 184 °C
